Target: GnRHR (Homo sapiens, UniProt P30968)
Construct: host or cells: CHO-K1 (CHO-K1/GnRHR/Ga15)
Sequence (P30968 whole entry): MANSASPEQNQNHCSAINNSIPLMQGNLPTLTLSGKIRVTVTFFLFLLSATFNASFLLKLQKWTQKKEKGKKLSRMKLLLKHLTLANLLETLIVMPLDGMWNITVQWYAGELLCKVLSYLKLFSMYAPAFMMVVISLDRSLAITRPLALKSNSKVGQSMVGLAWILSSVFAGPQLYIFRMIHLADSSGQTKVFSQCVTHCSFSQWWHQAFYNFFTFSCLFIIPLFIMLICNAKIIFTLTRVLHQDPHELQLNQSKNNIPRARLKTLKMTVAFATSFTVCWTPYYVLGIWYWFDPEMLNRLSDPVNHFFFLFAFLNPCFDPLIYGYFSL
Experiment: Calcium assay in CHO-K1 cells (Genscript), FLIPR
Type: cell-based
Details: CHO-K1/GnRHR/Ga15 cells, relative to agonist control, read-out: GNRHR Stimulation at 1 μM
Non-standard residues stand in square brackets, D forms with d. Residues, ends and D or L forms follow the SMILES beside them. d2Nal = N[C@H](Cc1ccc2ccccc2c1)C(=O)O; pGlu = O=C1CC[C@@H](C(=O)O)N1

compound	activation at 1 µM
CCNC(=O)[C@@H]1CCCN1C(=O)[C@H](CCCNC(=N)N)NC(=O)[C@H](CC(C)C)NC(=O)[C@@H](COC(C)(C)C)NC(=O)[C@H](Cc1ccc(O)cc1)NC(=O)[C@H](CO)NC(=O)[C@H](Cc1c[nH]c2ccccc12)NC(=O)[C@H](Cc1cnc[nH]1)NC(=O)[C@@H]1CCC(=O)N1 [Buserelin, reference compound]	94%
CC(C)C[C@H](NC(=O)[C@@H](Cc1ccc2ccccc2c1)NC(=O)[C@H](Cc1c[nH]cn1)NC(=O)[C@H](CO)NC(=O)[C@H](Cc1c[nH]c2ccccc12)NC(=O)[C@H](Cc1c[nH]cn1)NC(=O)[C@@H]1CCC(=O)N1)C(=O)N[C@@H](Cc1ccc(O)cc1)C(=O)N1CCC[C@H]1C(=O)NCC(N)=O [Compound 28] ([pGlu]HWSH[d2Nal]LYPG-NH2)	95%
